All values here come from the supplement of paper PMC12645437.

Recorded log2 fold change of degron read counts for the following sequences
Biological target: T1, CRBN, Q96SW2;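 note: pooled lentiviral library of zinc finger degron-EGFP fusions in mCherry-positive Jurkat cells, FACS-sorted after compound exposure, with degron abundance counted by next-generation sequencing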
T1 chain: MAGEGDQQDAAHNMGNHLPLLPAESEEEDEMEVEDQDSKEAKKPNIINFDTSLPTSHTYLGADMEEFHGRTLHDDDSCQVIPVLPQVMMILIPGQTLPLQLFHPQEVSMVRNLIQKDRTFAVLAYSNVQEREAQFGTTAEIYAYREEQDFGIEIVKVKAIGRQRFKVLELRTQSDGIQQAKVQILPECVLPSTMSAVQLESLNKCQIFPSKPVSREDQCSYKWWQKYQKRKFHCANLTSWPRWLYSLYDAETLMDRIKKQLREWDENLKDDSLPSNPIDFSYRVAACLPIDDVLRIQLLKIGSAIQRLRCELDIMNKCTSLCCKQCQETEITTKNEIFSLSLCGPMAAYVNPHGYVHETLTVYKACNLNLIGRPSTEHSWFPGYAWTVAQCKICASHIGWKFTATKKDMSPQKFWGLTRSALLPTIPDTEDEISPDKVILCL
Test: log2 fold change of degron read counts, EGFP-low vs EGFP+ sorted cells (limma voom), compound-induced degradation; higher = more compound-induced degradation of the degron-EGFP fusion; degrons are variants of IKZF1/3 zinc finger 2; compound dose not given here
Conditions: Jurkat; 18 h; compound: compound 22 (5-morpholino-thalidomide)
The full ranking holds about 8,300 sequences; the median of “log2 fold change of degron read counts, EGFP-low vs EGFP+ sorted cells (limma voom), compound-induced degradation” is about -1.1, and the highest 2% start at about 3.2. For the sample, the highest values were picked, then their nearest neighbours and some sequences at random.
PARAMETER: log2 fold change of degron read counts

# SEQ_STRING, VAL
records = [
    ("FVCEICGRKFTQKGNLLRHIKL [46F_47V_49E_50I_52G_53R_54K_55F_67L_, Q9UKT9]", -1.33),
    ("FLCDVCGAGFTQKGNLLRHIKL [46F_47L_49D_50V_52G_53A_54G_55F_67L_, Q9UKT9]", -1.56),
    ("FECEICGRNFTQKGNLLRHIKL [46F_47E_49E_50I_52G_53R_54N_55F_67L_, Q9UKT9]", -2.28),
    ("LTCPICGFSCTQKGNLLRHIKL [46L_47T_49P_50I_52G_53F_54S_55C_67L_, Q9UKT9]", 3.37),
]
